one-hybrid fitness for binding NBS DNA values for the variants below.
B1: Caulobacter ParB omega fusion; a variant is named by its letters at X, in order, B8GW30 (parent)
chain: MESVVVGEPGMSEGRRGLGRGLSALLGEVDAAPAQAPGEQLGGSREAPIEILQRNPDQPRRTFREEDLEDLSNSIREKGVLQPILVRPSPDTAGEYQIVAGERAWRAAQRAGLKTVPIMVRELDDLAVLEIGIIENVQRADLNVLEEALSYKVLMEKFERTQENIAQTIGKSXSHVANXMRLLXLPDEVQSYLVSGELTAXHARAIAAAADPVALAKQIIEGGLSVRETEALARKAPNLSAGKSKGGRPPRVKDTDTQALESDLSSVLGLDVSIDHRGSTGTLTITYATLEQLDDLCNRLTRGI

Variants of: B1
Method Description: one-hybrid fitness for binding NBS DNA (the Noc-binding site; scaled: cognate 1, non-cognate 0); higher = stronger binding
Experimental Conditions: with NBS DNA site
The full ranking holds about 81,000 sequences; the median of “one-hybrid fitness for binding NBS DNA” is about -0.1, and the highest 2% start at about 0.36. What follows is part of a selection rich in the highest values, with near analogues and random picks from the rest.
Parameter: one-hybrid fitness for binding NBS DNA

Variant Spec: RKMR
Op: =
Val: 0.577
--
Variant Spec: NCPT
Op: ≤
Val: 0.2
--
Variant Spec: RAGN
Op: ≤
Val: 0.2
--
Variant Spec: DEAY
Op: ≤
Val: 0.2
--
Variant Spec: TLCS
Op: ≤
Val: 0.2
--
Variant Spec: RAGS
Op: =
Val: 0.466
--
Variant Spec: RTGD
Op: ≤
Val: 0.2
--
Variant Spec: HRYM
Op: ≤
Val: 0.2
--
Variant Spec: RKGS
Op: =
Val: 0.576
--
Variant Spec: RLRS
Op: =
Val: 0.541

Where these numbers come from: a collection of fitness landscapes (doi:10.1016/j.celrep.2020.107928)
